Consider the following compounds; for each one, report its inhibition at 10 µM.
biological target: MMP2 (Homo sapiens); experiment: Fluorometric enzyme inhibition assay with fluorogenic substrate Mca-Lys-Pro-Leu-Gly-Leu-Dpa-Ala-Arg-NH2 (MMP2); format: biochemical; details: 10 μM compound; enzyme 1 nM; mean of three assays
Sequence (P08253 110-660): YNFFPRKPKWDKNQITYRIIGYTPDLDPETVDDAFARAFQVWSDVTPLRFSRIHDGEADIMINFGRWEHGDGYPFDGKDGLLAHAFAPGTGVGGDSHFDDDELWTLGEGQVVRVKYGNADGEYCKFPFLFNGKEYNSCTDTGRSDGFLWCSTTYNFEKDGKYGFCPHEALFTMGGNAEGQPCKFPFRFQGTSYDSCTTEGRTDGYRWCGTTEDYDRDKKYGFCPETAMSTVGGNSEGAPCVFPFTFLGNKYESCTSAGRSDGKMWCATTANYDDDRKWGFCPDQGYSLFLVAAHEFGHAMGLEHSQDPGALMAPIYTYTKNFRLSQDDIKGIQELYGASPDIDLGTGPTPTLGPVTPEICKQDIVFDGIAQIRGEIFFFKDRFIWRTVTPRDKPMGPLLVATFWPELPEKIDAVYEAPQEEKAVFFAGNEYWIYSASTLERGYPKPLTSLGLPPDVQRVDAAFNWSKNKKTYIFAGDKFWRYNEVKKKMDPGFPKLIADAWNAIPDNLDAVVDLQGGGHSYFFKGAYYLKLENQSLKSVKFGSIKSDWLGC
Numbers only here, please. The scale is %.

-- ask For the compound shown here, `N=C(N)NCCCOc1ccc(C[C@H](NS(=O)(=O)c2ccc(-c3ccccc3)cc2)C(=O)O)cc1` , give the reported inhibition at 10 µM.
-- reply 16

-- ask For the compound shown here, `NCCCOc1ccc(C[C@H](NS(=O)(=O)c2ccc(-c3ccccc3)cc2)C(=O)O)cc1` , give the reported inhibition at 10 µM.
-- reply 60

-- ask For the compound shown here, `N=C(N)NCCCOc1ccc(C[C@H](NS(=O)(=O)c2ccccc2)C(=O)NO)cc1` , give the reported inhibition at 10 µM.
-- reply 52

-- ask For the compound shown here, `NCCCOc1ccc(C[C@H](NS(=O)(=O)c2ccc(-c3ccccc3)cc2)C(=O)NO)cc1` , give the reported inhibition at 10 µM.
-- reply 100

-- ask For the compound shown here, `NCCCOc1ccc(C[C@H](NS(=O)(=O)c2ccc([N+](=O)[O-])cc2)C(=O)O)cc1` , give the reported inhibition at 10 µM.
-- reply 0

-- ask For the compound shown here, `O=C(NO)[C@H](Cc1ccc(O)cc1)NS(=O)(=O)c1ccc(-c2ccccc2)cc1` , give the reported inhibition at 10 µM.
-- reply 97

-- ask For the compound shown here, `N=C(N)NCCCOc1ccc(C[C@H](NS(=O)(=O)c2ccccc2)C(=O)O)cc1` , give the reported inhibition at 10 µM.
-- reply 0

Data provenance is paper PMC8879803.
